Test system: P388 leukemia ip, CD2F1 mice, survival T/C
Method Summary: NCI In Vivo Anticancer Drug Screen. Data for tumor model P388 Leukemia (intraperitoneal) in CD2F1 (CDF1) mice
Settings: endpoint: median survival time; dose: 240.0 mg/kg/injection; schedule: Q01DX005 (ip); vehicle: Klucel (hydroxypropylcellulose) (HPC); higher = longer survival
Inconclusive results and toxic doses are left out.
T/C by entry:

Consider the following illustrative entries.
Returns the measured T/C for the input compound. Input: CCc1cccc(CC)c1N1CC(C(=O)O)CC1=O (stereo unspecified) 101 % of control

Field entry: CC1(C)N=NC([Si](C)(C)C)=C1C(=O)c1ccccc1 105 % of control

Field entry: Cc1nnc2n(N)c(=O)c(CC(=O)c3ccc(F)cc3)nn12 90 % of control

Field entry: CSc1nc(N)c(NS(=O)(=O)c2ccccc2)c(=O)[nH]1 90 % of control

Field entry: CCN(CC)C1C2=C(CCCC2)OS(=O)(=O)C1c1ccccc1 (stereo unspecified) 95 % of control

***
Returns the measured T/C for the input compound. Input: O=C1CSC(=Nc2ccc(F)cc2F)N1Cc1cccs1 103 % of control
